B1: BRF1 (parent)
chain: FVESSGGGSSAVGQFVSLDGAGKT

# Variants of: B1
# assay-overview: protein stability index of a GFP-peptide fusion (GPS, HEK-293T) (PSI 1-6); higher = more stable;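 note: lentivirally expressed fusions sorted by FACS into six bins by GFP to DsRed ratio, PSI derived from sequencing read proportions per bin multiplied by bin number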
# condition-notes: c terminus: a fixed tail appended
# label = 1 (yes) if protein stability index >= 2 else 0 (no)

query-sequence	group
FVESSGGGSSAAGQFVSLDGAGKT [V12A]	1 (yes)

Data request: Check if protein stability index >= 2 (inclusive). Item: FVESSGGGESAVGQFVSLDGAGKT [S9E]
Data returned: 1 (yes)

Data request: Check if protein stability index >= 2 (inclusive). Item: FVESSGGGSSAVGQFVSLDPAGKT [G20P]
Data returned: 1 (yes)

Data request: Check if protein stability index >= 2 (inclusive). Item: FVESSGGGSSAVGQFVSLDYAGKT [G20Y]
Data returned: 0 (no)

Data request: Check if protein stability index >= 2 (inclusive). Item: FVESSGGGSSPVGQFVSLDGAGKT [A11P]
Data returned: 1 (yes)

meta.source: the supplement of paper PMC10567573
